System: HS 578T breast
Assay: NCI tumour cell line growth inhibition, 48 h
Each entry below carries its reported TGI.
measurementName: TGI (µM)

> print(dat)
                                   compound  measurementname  unitssymbol  relationsign  datavalue
1  Nc1ccccc1NC(=O)c1ccc(CSc2nc(N3CCOCC3)c3cccn3n2)cc1              TGI           µM             >        100
2          CC1=CC2=C(OCO1)C(=O)c1ccccc1C2=O              TGI           µM             =       4.25
3     NC1=NC(=O)N2CC12 (stereo unspecified)              TGI           µM             =       1720
4           O=C(NO)c1cccc(OCc2ccc(Br)cc2)c1              TGI           µM             =       75.4
5            O=c1c2cccnc2[nH]c2ccc3scnc3c12              TGI           µM             >         10
6  Cc1ccc(-c2csc(N(C(=O)N3CCN(c4cc5c(cc4F)c(=O)c(C(=O)O)cn5C4CC4)CC3)c3ccccc3)n2)cc1              TGI           µM             >        100

* * *

Tested on: K-562 leukemia
Experiment: NCI tumour cell line growth inhibition, 48 h
measurementName: GI50

> print(dat)
                                   molecule  measurementname  datavalue
1  COC(=O)c1cccc(NC(=O)Nc2ccc3oc(=O)c4ccccc4c3c2)c1             GI50   > 100 µM
2  Cc1cc(NC(=O)c2ccc(NS(=O)(=O)CCO)cc2N2CCC3(CC2)CC3)nc(N2CCC(F)(F)CC2)n1             GI50    3.59 µM
3  CCN1C(=O)N(CC)C2C1NN=c1s/c(=C3\C(=O)N(CCC(C)C)c4ccccc43)c(=O)n12 (centres undefined)             GI50   0.586 µM
4  CS(=O)(=O)CCNCc1ccc(-c2ccc3ncnc(Nc4ccc(OCc5ccccc5)c(C(F)(F)F)c4)c3c2)o1             GI50    6.83 µM

* * *

Tested on: NCI/ADR-RES ovarian
Experiment: NCI tumour cell line growth inhibition, 48 h; in the data active = GI50 below about 0.43 µM; inactive = the rest
Outcome codes: active, inactive

> print(dat)
                                   compound  classname
1  CC(=O)[O-].CC(=O)[O-].[Mn+2].c1ccc(/C(=N\Nc2ccccn2)c2ccccn2)cc1     active
2  CS(=O)(=O)c1ccc(N/N=C/c2c(-c3ccc(S(C)(=O)=O)cc3)[nH]c3ccc(F)cc23)cc1   inactive
3         CCN(Cc1ccc(F)cc1)c1ccc(CO)c(Cl)c1   inactive
4  COc1ccc(-c2cc(-c3ccc(Nc4nc(Nc5ccc(Cl)cc5)nc(Nc5ccc(Cl)cc5)n4)cc3)no2)cc1   inactive
5  COc1ccc(C(=S)c2cc(OC)c(OC)c(OC)c2)cc1OC(=O)CCl     active
6  O=C1C(=O)c2cc([N+](=O)[O-])ccc2-c2ccccc21   inactive
7  CCOC(=O)[C@H](CSSc1ncnc2cc[nH]c12)NC(=O)[C@@H](C)c1ccc2cc(OC)ccc2c1   inactive
8  COc1cc2c(c(OC)c1OC)-c1ccc(OC)c(=O)cc1[C@@H](NC(=O)CCl)CC2     active
9             COc1ccc(-c2coc3ncnc(N)c23)cc1   inactive

* * *

Tested on: BT-549 breast
Assay: NCI tumour cell line growth inhibition, 48 h; in the data active = GI50 below about 0.43 µM; inactive = the rest
Labels: active, inactive

> print(dat)
                                    molecule         target  classname
 1  CCC1CCc2nc3sc(C(=O)Nc4ccccc4F)c(N)c3cc2C1 (stereo not given)  BT-549 breast   inactive
 2         CCN(Cc1ccc(F)cc1)c1ccc(CO)c(Cl)c1  BT-549 breast   inactive
 3  CS(=O)(=O)CCNCc1ccc(-c2ccc3ncnc(Nc4ccc(OCc5ccccc5)c(C(F)(F)F)c4)c3c2)o1  BT-549 breast   inactive
 4  O=C1C2CC3C(CC2C(=O)[N]1[Sn]([c]1ccccc1)([c]1ccccc1)[c]1ccccc1)C1(Cl)C(Cl)=C(Cl)C3(Cl)C1(Cl)Cl (stereo not given)  BT-549 breast     active
 5            O=C1C=C(Nc2ccccc2)c2ncccc2C1=O  BT-549 breast   inactive
 6    O=c1oc2ccc(Cl)cc2c(=O)n1-c1ccc(Cl)cc1F  BT-549 breast   inactive
 7  CN1CCN(C(=O)c2ccc(NC(=O)Nc3ccc(N(C)c4ccnc(Nc5ccc(CS(C)(=O)=O)cc5)n4)cc3)cc2)CC1  BT-549 breast   inactive
 8  COc1ccc(-c2cc(-c3ccc(Nc4nc(Nc5ccc(Cl)cc5)nc(Nc5ccc(Cl)cc5)n4)cc3)no2)cc1  BT-549 breast   inactive
 9  Cc1ccc(-c2csc(N(C(=O)N3CCN(c4cc5c(cc4F)c(=O)c(C(=O)O)cn5C4CC4)CC3)c3ccccc3)n2)cc1  BT-549 breast     active
10  COc1ccc(C(=S)c2cc(OC)c(OC)c(OC)c2)cc1OC(=O)CCl  BT-549 breast     active

* * *

System: SK-OV-3 ovarian
Experiment: NCI tumour cell line growth inhibition, 48 h

molecule	target	TGI
O=C(Sc1c(-c2ccccc2)c(=O)n(-c2ccccc2)c(=S)n1-c1ccccc1)c1ccc(Cl)cc1	SK-OV-3 ovarian	> 100 µM
COc1cc2c(c(OC)c1OC)-c1ccc([O-])c(=O)cc1[C@@H](NC(C)=O)CC2.COc1cc2c(c(OC)c1OC)-c1ccc([O-])c(=O)cc1[C@@H](NC(C)=O)CC2.[Cu+2]	SK-OV-3 ovarian	> 100 µM
O=C(NNC(=S)Nc1ccccc1)C12CC3CC(CC(C3)C1)C2	SK-OV-3 ovarian	> 100 µM
COc1ccccc1C1C2=C(COC2=O)OC(C)(C)Oc2cc3c(cc21)OCO3 (centres undefined)	SK-OV-3 ovarian	> 100 µM
Cc1ccc(S(=O)(=O)Nn2c(-c3ccccc3)c(C#N)c(-c3ccc(Cl)cc3)c(C#N)c2=O)cc1	SK-OV-3 ovarian	> 100 µM
COC(=O)[C@@H]1O[C@]12C(CO[Si](C)(C)C(C)(C)C)OC(n1ccc(=O)[nH]c1=O)C2O[Si](C)(C)C(C)(C)C (some centres undefined)	SK-OV-3 ovarian	> 100 µM
CCCCCCCCCCCCCCCCOP(=O)(O)OP(=O)(O)OCC1OC(n2ccc(N)nc2=O)CC1O (centres undefined)	SK-OV-3 ovarian	> 100 µM
Oc1c(Br)cc(Br)cc1CN(Cc1cc(Br)cc(Br)c1O)C1CCCCC1	SK-OV-3 ovarian	> 100 µM
O=C(NO)c1cccc(OCc2ccc(Br)cc2)c1	SK-OV-3 ovarian	> 55.7 µM
CCOC(=O)c1sc2nc(SC)nc(Nc3ccc4c(c3)OCCCO4)c2c1N	SK-OV-3 ovarian	> 100 µM
COc1ccc(C)c2c1N[C@](C)([C@]1(C)Nc3c(OC)ccc(C)c3C1=O)C2=O	SK-OV-3 ovarian	> 100 µM
COc1ccc(-c2cc(-c3ccc(Nc4nc(Nc5ccc(Cl)cc5)nc(Nc5ccc(Cl)cc5)n4)cc3)no2)cc1	SK-OV-3 ovarian	79.4 µM
O=C1c2ccccc2C(=O)N1/N=C\c1ccc(Br)cc1	SK-OV-3 ovarian	> 100 µM
CC1(C)C(O)c2ccccc2OC1N1CCN(C2Oc3ccccc3C(O)C2(C)C)CC1 (centres undefined)	SK-OV-3 ovarian	> 100 µM
CON(C)C(=O)C(Cc1ccccc1)NC(=O)OC(C)(C)C (centres undefined)	SK-OV-3 ovarian	> 100 µM
COC(=O)C1=CC(O)CCC1c1ccc(OC)cc1 (centres undefined)	SK-OV-3 ovarian	> 100 µM
COc1ccc(C(=O)/C=C/c2cc3ccccc3[nH]c2=O)cc1	SK-OV-3 ovarian	> 91.6 µM
CC(=O)OCC1OC(n2c(C)c(N=Nc3ccc(C)cc3)c(C)c(C#N)c2=S)C(OC(C)=O)C(OC(C)=O)C1OC(C)=O (centres undefined)	SK-OV-3 ovarian	> 100 µM
COc1ccc(OC)c(/C=C/c2nnc(Nc3ccc(Cl)cc3)o2)c1	SK-OV-3 ovarian	7.85 µM

* * *

System: HOP-62 NSCLC
Assay: NCI tumour cell line growth inhibition, 48 h
Recorded TGI by entry
measurementName: TGI

> print(dat)
                                    compound        target  datavalue
 1  CC1(C)SC2C(C(=O)O)N=C(Cc3ccccc3)N2C1C(=O)O (centres undefined)  HOP-62 NSCLC   > 100 µM
 2  C#CCCCC(=C)C[C@H](OCc1ccccc1)[C@H]1OC(=O)[C@@H]1C  HOP-62 NSCLC   > 100 µM
 3  O=C1c2ccccc2C(=O)c2c(OCC3CO3)ccc(OCC3CO3)c21 (centres undefined)  HOP-62 NSCLC    7.09 µM
 4  C#C[C@@]1(O)[C@@H](CO)O[C@@H](n2cc(Cl)c3c(N)ncnc32)[C@@H]1O  HOP-62 NSCLC    1.97 µM
 5  O=C(Sc1c(-c2ccccc2)c(=O)n(-c2ccccc2)c(=S)n1-c1ccccc1)c1ccc(Cl)cc1  HOP-62 NSCLC   > 100 µM
 6            O=C1C=C(Nc2ccccc2)c2ncccc2C1=O  HOP-62 NSCLC    1.49 µM
 7      OCCN1CCN(CCO)Cc2ccccc2OCCOc2ccccc2C1  HOP-62 NSCLC   > 100 µM
 8  c1cncc(C2c3[nH]c4ccccc4c3CCN2CCCN2CCCCC2)c1 (centres undefined)  HOP-62 NSCLC   > 100 µM
 9           O=C(NO)c1cccc(OCc2ccc(Br)cc2)c1  HOP-62 NSCLC    52.8 µM
10  CC(C)(C)CN1[C@@H]2CCCC[C@H]2N(CC(C)(C)C)P1(=O)Cc1ccccc1  HOP-62 NSCLC    31.3 µM
11                  COC(=O)CCc1ccc2c(c1)CCC2  HOP-62 NSCLC   > 100 µM
12  O=C1O/C(=C\c2ccc(O)c(Br)c2)C(c2ccc(O)cc2)=C1Cl  HOP-62 NSCLC   > 100 µM
13     O=C1CCC(=O)N1CNc1ccc2c(c1)Sc1ccccc1O2  HOP-62 NSCLC   > 100 µM
14  CC1CCCOc2ccc(cc2)C=Nc2ccc(cc2)CCc2ccc(cc2)N=Cc2ccc(cc2)OCCC1 (centres undefined)  HOP-62 NSCLC   > 100 µM
